Record form. Attribute: Geometric mean (GM) of the peptide MICs. Fill in for each entry.
- Test system: Gram-negative bacteria
- measurementSetup: Gram-negative test strains
Record the result as number plus unit.

Measured on Gram-negative bacteria, CC[C@H](C)[C@@H]1NC(=O)[C@@H](NC(=O)[C@H](Cc2c[nH]c3ccccc23)NC(=O)[C@@H](N)CCCCN)CSSC[C@@H](C(=O)N[C@@H](CCCNC(=N)N)C(=O)O)NC(=O)[C@H](CCCNC(=N)N)NC(=O)[C@H](CCCNC(=N)N)NC(=O)[C@H](Cc2ccc(O)cc2)NC(=O)[C@@H]2CSSC[C@H](NC(=O)[C@H](C(C)C)NC(=O)[C@H](CCCNC(=N)N)NC1=O)C(=O)N[C@@H](CCCNC(=N)N)C(=O)N[C@@H](CC(N)=O)C(=O)NCC(=O)N[C@@H](C(C)C)C(=O)N2 [CT5] has a documented Geometric mean (GM) of the peptide MICs of 1.09 µM

Geometric mean (GM) of the peptide MICs on Gram-negative bacteria for CC(C)[C@@H]1NC(=O)CNC(=O)[C@H](CC(N)=O)NC(=O)[C@H](CCCNC(=N)N)NC(=O)[C@@H]2CSSC[C@H](NC1=O)C(=O)N[C@@H](Cc1ccc(O)cc1)C(=O)N[C@@H](CCCNC(=N)N)C(=O)N[C@@H](CCCNC(=N)N)C(=O)N[C@H](C(=O)N[C@@H](Cc1c[nH]c3ccccc13)C(=O)O)CSSC[C@H](NC(=O)[C@@H](NC(=O)[C@@H](N)CCCNC(=N)N)C(C)C)C(=O)N[C@@H](Cc1ccccc1)C(=O)N[C@@H](CCCNC(=N)N)C(=O)N[C@@H](C(C)C)C(=O)N2 [CT6] is 0.55 µM

Gram-negative bacteria assay, molecule CC[C@H](C)[C@@H]1NC(=O)[C@@H](NC(=O)[C@@H](NC(=O)[C@@H](N)CCCNC(=N)N)C(C)C)CSSC[C@@H](C(=O)N[C@@H](Cc2c[nH]c3ccccc23)C(=O)O)NC(=O)[C@H](CCCNC(=N)N)NC(=O)[C@H](CCCNC(=N)N)NC(=O)[C@H](Cc2ccc(O)cc2)NC(=O)[C@@H]2CSSC[C@H](NC(=O)[C@H](C(C)C)NC(=O)[C@H](CCCNC(=N)N)NC1=O)C(=O)N[C@@H](CCCNC(=N)N)C(=O)N[C@@H](CC(N)=O)C(=O)NCC(=O)N[C@@H](C(C)C)C(=O)N2 [CT4] , recorded Geometric mean (GM) of the peptide MICs = 0.59 µM

Field Geometric mean (GM) of the peptide MICs (Gram-negative bacteria), entry CC[C@H](C)[C@@H]1NC(=O)[C@@H](NC(=O)[C@@H](NC(=O)[C@H](CCCNC(=N)N)NC(=O)[C@@H]2CCCN2C(=O)[C@@H](N)CO)C(C)C)CSSC[C@@H](C(=O)N[C@@H](Cc2c[nH]c3ccccc23)C(=O)O)NC(=O)[C@H](CCCNC(=N)N)NC(=O)[C@H](CCCNC(=N)N)NC(=O)[C@H](Cc2ccc(O)cc2)NC(=O)[C@@H]2CSSC[C@H](NC(=O)[C@H](C(C)C)NC(=O)[C@H](CCCNC(=N)N)NC1=O)C(=O)N[C@@H](CCCNC(=N)N)C(=O)N[C@@H](CC(N)=O)C(=O)NCC(=O)N[C@@H](C(C)C)C(=O)N2 [CT3] : 1.09 µM

Sourced from paper PMC8953592
